Values from PubChem BioAssay AID504332

// reported activity, negative = inhibition for each item listed
# Tested On: Histone-lysine N-methyltransferase EHMT2 (Homo sapiens) (UniProt Q96KQ7)
# Sequence (Q96KQ7 913-1193 limits assumed): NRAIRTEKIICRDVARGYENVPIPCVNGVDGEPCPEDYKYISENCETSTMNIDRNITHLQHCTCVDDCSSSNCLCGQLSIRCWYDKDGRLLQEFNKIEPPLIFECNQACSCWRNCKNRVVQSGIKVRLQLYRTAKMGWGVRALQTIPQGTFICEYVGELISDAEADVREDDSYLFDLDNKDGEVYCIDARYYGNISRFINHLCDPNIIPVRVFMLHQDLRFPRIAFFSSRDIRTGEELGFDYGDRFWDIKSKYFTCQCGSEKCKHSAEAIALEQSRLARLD
# Assay Procedure: qHTS Assay for Inhibitors of Histone Lysine Methyltransferase G9a; note: nearly all actives have a fitted effect of over 75% in size; for activity, negative = inhibition: % is set by controls: 0 for no effect and ±100 for the full control effect
# Condition Label: G9a H3K9 monomethylation, AlphaScreen, 2 h; series mostly up to 59 µM
About 31,000 (8.9%) of roughly 350,000 compounds were called active. About 15% were inconclusive and are not listed. For the sample, actives were picked, then their nearest neighbours and some compounds at random.

The examples below pair each entry with its known result.
Dear colleague, I am looking for the recorded activity, negative = inhibition of the following compound: `CCCn1nc(C(=O)OCc2nc(N)nc(Nc3ccccc3C)n2)c2ccccc2c1=O`
-4.37% [at 12.7 µM] (inactive)

I'd like to know its activity, negative = inhibition. The compound in question is COc1ccccc1C(CNC(=O)c1ccc(C)c(S(=O)(=O)N2CCCCC2)c1)N(C)C (configuration not stated)
24.7% [at 12.7 µM] (inactive)

Sample `CCCCN(C(=O)C1CCC1)c1c(N)n(Cc2ccccc2)c(=O)[nH]c1=O` — what was its activity, negative = inhibition?
-8.06% [at 12.7 µM] (inactive)

# activity, negative = inhibition lookup, item `CN(CC(=O)Nc1ccc(F)c(F)c1F)C(=O)Cn1cnc2c1c(=O)n(C)c(=O)n2C`
25.9% [at 12.7 µM] (inactive)

More entries:
Dear colleague, I am looking for the recorded activity, negative = inhibition of the following compound: `Cc1occc1C(=O)Nc1nnc(-c2ccncc2)s1`
-37.1% [at 12.7 µM] (inactive)

====

# Tested On: Histone-lysine N-methyltransferase EHMT2 (Homo sapiens)
# Assay Procedure: qHTS Assay for Inhibitors of Histone Lysine Methyltransferase G9a; note: nearly all actives have a fitted effect of over 75% in size
# Condition Label: G9a H3K9 monomethylation, AlphaScreen, 2 h; series mostly up to 59 µM
Hit rate of the full screen: of about 350,000 compounds, about 31,000 (8.9%) were called active. Another 15% or so got no clear call; they are omitted. Calls follow the shape of the dose curve; as a rule, active = well fitted inhibition curve with a large enough effect; inconclusive = small, poorly fitted or top-dose-only effect; inactive = no such curve, though single readings can be large or run the other way. Shown is part of a subset that was picked to be rich in actives.
Respond with a class label; see 1 (active), 0 (inactive)

These solved cases illustrate the format of a correct answer.
Record lookup: outcome of this test for `CCOC(=O)N1CCN(C(=O)C(=O)Nc2sc3c(c2C#N)CC(C)(C)OC3)CC1` ?
1

Recorded test outcome, item COc1ccc(/C(O)=C2/C(=O)C(=O)N(c3nc(C)c(C)s3)C2c2ccco2)cc1 (centres undefined)
1

Hi, sorry to bother you, what did the test record for `CCOC(=O)N1CCN(S(=O)(=O)c2cc(Br)cc3c2N(C(=O)C2CC2)CC3)CC1` ?
0

Please state the recorded outcome for this compound: `O=C(CN1CCCCCC1)Nc1ccc(Cl)cc1F`
0

Write down the call the test reported for this compound. Item: `CCCNC(=O)CSc1nc(Cc2ccccc2)nc2ccccc12`
0

Further cases:
Per the records of this test, what outcome belongs to `N#C/C(=C\N1CCOCC1)S(=O)(=O)c1ccc(Cl)cc1` ?
0

Status in this test for COc1ccc(S(=O)(=O)N2CCN(CC(=O)N3c4ccccc4CC3C)CC2)cc1OC (centres undefined) ?
1

// outcome(item) with item = `COc1cccc(CNCCSc2nnnn2C)c1OCc1ccccc1Cl`
0

====

# Tested On: Histone-lysine N-methyltransferase EHMT2 (Homo sapiens) (UniProt Q96KQ7)
# Assay Procedure: qHTS Assay for Inhibitors of Histone Lysine Methyltransferase G9a; note: nearly all actives have a fitted effect of over 75% in size; note: potency is the fitted concentration of half-maximal effect
# Condition Label: G9a H3K9 monomethylation, AlphaScreen, 2 h; series mostly up to 59 µM
The whole screen tested about 350,000 compounds, of which about 31,000 (8.9%) were called active. About 15% were inconclusive and are not listed. Shown is part of a subset that was picked to be rich in actives.
Observable: Potency

Below, 5 molecules whose answers are already recorded.
# get_value(readout= Potency, system= Histone-lysine N-methyltransferase EHMT2 (Homo sapiens) (UniProt Q96KQ7)) for `O=c1c2cccnc2n(Cc2cccc(F)c2)c(=O)n1Cc1ccccc1Cl`
inactive

Write down the reported Potency of Cc1ccc2oc3c(c(=O)c2c1)C(c1ccc(O)cc1)N(Cc1ccc2c(c1)OCO2)C3=O (stereo unspecified) , test system: Histone-lysine N-methyltransferase EHMT2 (Homo sapiens) (UniProt Q96KQ7).
inactive

Please provide the recorded Potency for `S=c1nc2ccccc2c2nc(-c3cccnc3)[nH]n12` , tested on Histone-lysine N-methyltransferase EHMT2 (Homo sapiens) (UniProt Q96KQ7).
10 µM (active)

API: value(readout=Potency, system=Histone-lysine N-methyltransferase EHMT2 (Homo sapiens) (UniProt Q96KQ7)) for record `CCc1cccc2c(C=C(C#N)C#N)cn(CC(=O)N3CCCCC3)c12`
44.7 µM (active)

Hello, I am looking for reported Potency with Histone-lysine N-methyltransferase EHMT2 (Homo sapiens) (UniProt Q96KQ7) for CCOC(=O)c1cccc(NC(=O)c2cc(S(=O)(=O)N3CCCC(C)C3)cn2C)c1 (stereo unspecified) . Could you help?
inactive

---
Report Potency for `CC(C)Sc1nnc([C@H](Cc2ccccc2)NC(=O)OC(C)(C)C)o1` tested on Histone-lysine N-methyltransferase EHMT2 (Homo sapiens) (UniProt Q96KQ7).
35.5 µM (active)

Missing value: Potency, Histone-lysine N-methyltransferase EHMT2 (Homo sapiens) (UniProt Q96KQ7), entry `O=C(COc1ccccc1)NCc1ccc2c(c1)CCN2C(=O)c1ccc(F)cc1` . Fill in?
inactive

// lookup Potency | system=Histone-lysine N-methyltransferase EHMT2 (Homo sapiens) (UniProt Q96KQ7) | key= Cc1cccc(N2C(=O)SC(N(CC(=O)O)c3cccc(C)c3)C2=O)c1 (stereo unspecified)
inactive

Lab request: please report Potency under test system Histone-lysine N-methyltransferase EHMT2 (Homo sapiens) (UniProt Q96KQ7) for `C[C@H](NC(=O)OC(C)(C)C)c1nnc(SCC(N)=O)o1`
inactive

Give Histone-lysine N-methyltransferase EHMT2 (Homo sapiens) (UniProt Q96KQ7) Potency for `O=C(NCCS(=O)(=O)c1ccc(Br)cc1)c1ccccc1Cl`
inactive

Identify the measured Potency of `COc1ccc(-c2ccc(CNCCCN3CCOCC3)o2)cc1Cl` for Histone-lysine N-methyltransferase EHMT2 (Homo sapiens) (UniProt Q96KQ7).
50.1 µM (active)
